Target: human GCN2 full-length protein (Homo sapiens, UniProt Q9P2K8)
Construct: purchased Carna Biosciences, Inc
Sequence (Q9P2K8 whole entry): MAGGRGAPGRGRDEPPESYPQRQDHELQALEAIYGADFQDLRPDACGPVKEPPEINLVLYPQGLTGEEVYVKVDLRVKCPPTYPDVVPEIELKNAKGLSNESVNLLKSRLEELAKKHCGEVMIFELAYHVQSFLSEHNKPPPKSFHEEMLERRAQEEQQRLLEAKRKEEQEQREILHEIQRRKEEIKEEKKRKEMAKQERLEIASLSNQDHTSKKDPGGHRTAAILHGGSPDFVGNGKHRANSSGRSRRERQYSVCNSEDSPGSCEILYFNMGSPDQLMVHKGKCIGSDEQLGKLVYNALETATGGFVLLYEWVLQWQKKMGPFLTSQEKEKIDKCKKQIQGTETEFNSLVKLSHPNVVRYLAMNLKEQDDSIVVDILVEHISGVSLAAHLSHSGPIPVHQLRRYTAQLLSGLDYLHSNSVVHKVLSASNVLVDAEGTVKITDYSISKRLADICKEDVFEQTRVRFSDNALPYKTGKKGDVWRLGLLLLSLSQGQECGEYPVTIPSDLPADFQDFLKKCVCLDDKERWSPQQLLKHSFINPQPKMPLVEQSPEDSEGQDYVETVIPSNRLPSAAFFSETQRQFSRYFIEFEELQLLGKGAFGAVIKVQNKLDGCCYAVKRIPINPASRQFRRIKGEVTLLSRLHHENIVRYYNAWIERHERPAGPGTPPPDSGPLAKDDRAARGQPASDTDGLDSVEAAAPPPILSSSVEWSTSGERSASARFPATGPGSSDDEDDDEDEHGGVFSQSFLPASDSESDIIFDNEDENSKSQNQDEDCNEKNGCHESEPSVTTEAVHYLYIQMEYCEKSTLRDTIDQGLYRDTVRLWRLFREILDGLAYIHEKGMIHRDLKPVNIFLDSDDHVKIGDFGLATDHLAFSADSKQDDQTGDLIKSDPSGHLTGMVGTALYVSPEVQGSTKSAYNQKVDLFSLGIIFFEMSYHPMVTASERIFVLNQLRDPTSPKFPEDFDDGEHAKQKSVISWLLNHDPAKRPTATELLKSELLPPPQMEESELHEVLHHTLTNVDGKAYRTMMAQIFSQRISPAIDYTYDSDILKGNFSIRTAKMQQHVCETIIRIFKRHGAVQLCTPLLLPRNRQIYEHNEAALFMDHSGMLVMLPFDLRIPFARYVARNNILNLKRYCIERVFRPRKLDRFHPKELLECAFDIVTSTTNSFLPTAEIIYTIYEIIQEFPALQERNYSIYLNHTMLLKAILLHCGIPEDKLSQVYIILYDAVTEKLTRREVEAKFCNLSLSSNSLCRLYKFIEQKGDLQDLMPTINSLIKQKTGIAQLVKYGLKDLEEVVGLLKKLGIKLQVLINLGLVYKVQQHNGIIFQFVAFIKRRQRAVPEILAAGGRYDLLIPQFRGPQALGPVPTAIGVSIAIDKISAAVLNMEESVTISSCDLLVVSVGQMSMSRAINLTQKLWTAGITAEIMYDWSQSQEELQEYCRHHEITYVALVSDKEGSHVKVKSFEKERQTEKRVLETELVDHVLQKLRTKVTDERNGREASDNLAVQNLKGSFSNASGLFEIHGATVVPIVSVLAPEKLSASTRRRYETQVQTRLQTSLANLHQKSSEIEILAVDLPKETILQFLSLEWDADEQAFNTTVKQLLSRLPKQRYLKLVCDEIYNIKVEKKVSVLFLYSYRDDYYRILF
Test: GCN2 enzyme inhibition assay (LanthaScreen TR-FRET)
Format: biochemical
Conditions: GCN2 enzyme inhibitory activity at compound concentration of 3 μM; Table 3-2; read-out: inhibitory rate
readout-kind: inhibition at 3 µM (%)

given_smiles=C[C@H](CO)Nc1ncc(C#Cc2c(F)ccc(NS(=O)(=O)c3cc(Cl)cc(CO)c3Cl)c2F)nn1 reported_measurement=100
given_smiles=COc1c(CO)cc(Cl)cc1S(=O)(=O)Nc1ccc(F)c(C#Cc2cnc(N[C@H]3CC[C@H](O)CC3)nc2)c1F reported_measurement=99
given_smiles=Cc1ncc(Cl)cc1S(=O)(=O)Nc1ccc(F)c(C#Cc2cnc(N[C@H](C)CO)nc2)c1F reported_measurement=99
given_smiles=CCNc1ncc(C#Cc2c(F)ccc(NS(=O)(=O)c3cc(Cl)cc(CO)c3OC)c2F)cn1 reported_measurement=99

----------
Biological target: human GCN2 full-length protein (Homo sapiens, UniProt Q9P2K8)
Construct: purchased Carna Biosciences, Inc
Assay: GCN2 enzyme inhibition assay (LanthaScreen TR-FRET)
Assay type: biochemical
Settings: GCN2 enzyme inhibitory activity at compound concentration of 3 μM; Table 3-1; read-out: inhibitory rate
Structures can show the parent of a compound that is named as a salt.
readout-kind: inhibition at 3 µM (%)

molecule="COc1ncc(Cl)cc1S(=O)(=O)Nc1ccc(F)c(C#Cc2cnc(N)nc2)c1F [Example 7]" readout_kind="inhibition at 3 µM" reported_measurement=100
molecule="COc1ncc(Cl)cc1S(=O)(=O)Nc1ccc(F)c(C#Cc2cnc(N)c(C)n2)c1F [Example 110]" readout_kind="inhibition at 3 µM" reported_measurement=100
molecule="Cc1cc(Br)cc(S(=O)(=O)Nc2ccc(F)c(C#Cc3cnc4[nH]ncc4c3)c2F)c1 [Example 18]" readout_kind="inhibition at 3 µM" reported_measurement=100
molecule="C[C@H](CO)Nc1ncc(C#Cc2c(F)ccc(NS(=O)(=O)c3cc(Cl)ccc3Cl)c2F)cn1 [Example 22, TFA Salt]" readout_kind="inhibition at 3 µM" reported_measurement=99
molecule="COc1ncc(Cl)cc1S(=O)(=O)Nc1cccc(C#Cc2cnc(N)nc2)c1F [Example 123]" readout_kind="inhibition at 3 µM" reported_measurement=100
molecule="COc1ncc(Cl)cc1S(=O)(=O)Nc1ccc(F)c(C#Cc2cnc(NCC(C)(C)O)nc2)c1F [Example 107]" readout_kind="inhibition at 3 µM" reported_measurement=99
molecule="COc1ncc(Cl)cc1S(=O)(=O)Nc1ccc(F)c(C#Cc2cnc(N)nc2)c1Cl [Example 125]" readout_kind="inhibition at 3 µM" reported_measurement=100
molecule="Cc1ccc(Cl)cc1S(=O)(=O)Nc1ccc(F)c(C#Cc2cnc(N)nc2)c1F [Example 19]" readout_kind="inhibition at 3 µM" reported_measurement=98

----------
Target: human GCN2 full-length protein (Homo sapiens, UniProt Q9P2K8)
Construct: purchased Carna Biosciences, Inc
Experiment: GCN2 enzyme inhibition assay (LanthaScreen TR-FRET)
Type: biochemical
Settings: GCN2 enzyme inhibitory activity at compound concentration of 3 μM; Table 3-1; read-out: inhibitory rate
Method: GCN2 enzyme was preserved at -70° C. and used. The GCN2 enzyme inhibitory activity of the test compound was measured by the LanthaScreenTR-FRET (Time Resolved Fluorescence Resonance Energy Transfer) method (manufactured by ThermoFisher). […] Then, GCN2 enzyme solution diluted with the assay buffer was added by 2 μL to each well. […] After standing at room temperature for 1 hr, time decomposition fluorescence measurement was performed on platereader Envision (manufactured by PerkinElmer).
Structures can show the parent of a compound that is named as a salt.
readout-kind: inhibition at 3 µM (%)

compound=O=S(=O)(Nc1ccc(F)c(C#Cc2cnc3[nH]ncc3c2)c1F)c1cc(Cl)cc(Cl)c1Cl target_entity="human GCN2 full-length protein (Homo sapiens, UniProt Q9P2K8)" reported_measurement=100
compound=Cc1ccc(Cl)cc1S(=O)(=O)Nc1ccc(F)c(C#Cc2cnc(N)c(C)n2)c1F target_entity="human GCN2 full-length protein (Homo sapiens, UniProt Q9P2K8)" reported_measurement=99
compound="CCNc1ncc(C#Cc2c(F)ccc(NS(=O)(=O)c3cc(Cl)ccc3Cl)c2F)cn1 [Example 30, TFA Salt]" target_entity="human GCN2 full-length protein (Homo sapiens, UniProt Q9P2K8)" reported_measurement=98
compound="O=S(=O)(Nc1ccc(F)c(C#Cc2cnc3[nH]ncc3c2)c1F)c1cc(Br)ccc1F [Example 24, TFA Salt]" target_entity="human GCN2 full-length protein (Homo sapiens, UniProt Q9P2K8)" reported_measurement=99
compound="O=S(=O)(Nc1ccc(F)c(C#Cc2cnc3[nH]ncc3c2)c1F)c1cccc(Cl)c1Cl [Example 38, TFA Salt]" target_entity="human GCN2 full-length protein (Homo sapiens, UniProt Q9P2K8)" reported_measurement=99
compound=Nc1ncc(C#Cc2c(F)ccc(NS(=O)(=O)c3cc(Cl)cc4c3OCC4)c2F)cn1 target_entity="human GCN2 full-length protein (Homo sapiens, UniProt Q9P2K8)" reported_measurement=99
compound=COc1ncc(Cl)cc1S(=O)(=O)Nc1ccc(F)c(C#Cc2cnc(NC(C)(C)CO)nc2)c1F target_entity="human GCN2 full-length protein (Homo sapiens, UniProt Q9P2K8)" reported_measurement=99
compound=Cc1ccc(Cl)cc1S(=O)(=O)Nc1ccc(F)c(C#Cc2cnc3[nH]ncc3c2)c1F target_entity="human GCN2 full-length protein (Homo sapiens, UniProt Q9P2K8)" reported_measurement=100
